# TESTED_ON: 11-beta-hydroxysteroid dehydrogenase 1 (Mus musculus, UniProt P50172)
# Sequence (P50172 whole entry): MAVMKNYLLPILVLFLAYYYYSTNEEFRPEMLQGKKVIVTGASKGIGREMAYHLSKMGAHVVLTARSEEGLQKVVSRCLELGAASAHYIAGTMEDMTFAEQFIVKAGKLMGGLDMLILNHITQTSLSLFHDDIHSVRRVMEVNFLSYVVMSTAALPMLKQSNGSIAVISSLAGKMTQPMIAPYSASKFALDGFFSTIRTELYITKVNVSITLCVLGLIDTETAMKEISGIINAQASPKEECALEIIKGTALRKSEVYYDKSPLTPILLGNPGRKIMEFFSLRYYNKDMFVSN
# TEST_DETAILS: Inhibition of mouse recombinant 11beta-HSD1 by scintillation proximity assay
pIC50: −log10 of the molar value.
EXPERIMENTAL_ENDPOINT: pIC50

Example cases with answers are listed next.
INPUT_SMILES	TESTED_ON	pIC50
NC(=O)[C@]12CC3CC(C1)[C@@H](NC(=O)N1CCN(c4ccc(N5CCN(S(=O)(=O)C6CC6)CC5)cn4)c4ccccc41)C(C3)C2	11-beta-hydroxysteroid dehydrogenase 1 (Mus musculus, UniProt P50172)	8.10
COc1ccc(-c2cnc(N3CCN(C(=O)N[C@H]4C5CC6CC4C[C@](O)(C6)C5)c4ccccc43)nc2)cc1	11-beta-hydroxysteroid dehydrogenase 1 (Mus musculus, UniProt P50172)	7.82
COc1ccc(-c2cnc(N3CCN(C(=O)N[C@H]4C5CC6CC4C[C@](C(N)=O)(C6)C5)c4ccccc43)nc2)cc1	11-beta-hydroxysteroid dehydrogenase 1 (Mus musculus, UniProt P50172)	7.44
CS(=O)(=O)N1CCN(c2ccc(N3CCN(C(=O)N[C@H]4C5CC6CC4C[C@](C(N)=O)(C6)C5)c4ccccc43)cc2)CC1	11-beta-hydroxysteroid dehydrogenase 1 (Mus musculus, UniProt P50172)	8.30
CC(C)(C)N1CCN(c2ccc(N3CCN(C(=O)N[C@H]4C5CC6CC4C[C@](O)(C6)C5)c4ccccc43)nc2)CC1	11-beta-hydroxysteroid dehydrogenase 1 (Mus musculus, UniProt P50172)	8.10

1. CC(C)(C)N1CCN(c2ccc(N3CCN(C(=O)N[C@H]4C5CC6CC4C[C@](C(N)=O)(C6)C5)c4ccccc43)nc2)CC1
2. CS(=O)(=O)N1CCN(c2ccc(N3CCN(C(=O)N[C@H]4C5CC6CC4C[C@](O)(C6)C5)c4ccccc43)nc2)CC1
Q: Consider 1 and 2 . Which of these has its pIC50 at a higher number? Let me know the label of the one you choose.
A: 2
(2: 8.70, 1: 8.22)
